# measurement-target: HDAC3/NcoR2 (Homo sapiens (Human))
# assay-procedure: HDAC activity inhibition assay, HDAC3/NcoR2
# Format: biochemical
# condition: Table 4
result-type: IC50

Sample answers from the record:
CC(C)(O)CN1CCC(=Cc2ccc(C(=O)Nc3ccccc3N)cc2)CC1 :: < 1000 nM
Cc1cccc(CN2CC(=Cc3ccc(C(=O)Nc4ccccc4N)cc3)C2)n1 :: < 1000 nM

Now, please, on to the next compound.
*Q* Given `Nc1ccccc1NC(=O)c1ccc(C=C2CCN(Cc3cccnc3)CC2)c(Cl)c1` , state its recorded IC50.
*A* < 1000 nM

----------
# Tested on: Human Hepatocytes
# assay-procedure: Compound stability in hepatocytes
# condition: 5 μM
result-type: % left 6 h Hum

Nc1ccccc1NC(=O)c1ccc(C=C2CCN(Cc3cccnc3)CC2)c(Cl)c1 :: C (30%>C>10%)
CC(C)(C)CN1CCC(=Cc2ccc(C(=O)Nc3ccccc3N)cc2)CC1 :: C (30%>C>10%)

----------
IC50 overview
# measurement-target: HDAC3/NcoR2 (Homo sapiens (Human), UniProt O15379)
# Sequence (O15379 whole entry): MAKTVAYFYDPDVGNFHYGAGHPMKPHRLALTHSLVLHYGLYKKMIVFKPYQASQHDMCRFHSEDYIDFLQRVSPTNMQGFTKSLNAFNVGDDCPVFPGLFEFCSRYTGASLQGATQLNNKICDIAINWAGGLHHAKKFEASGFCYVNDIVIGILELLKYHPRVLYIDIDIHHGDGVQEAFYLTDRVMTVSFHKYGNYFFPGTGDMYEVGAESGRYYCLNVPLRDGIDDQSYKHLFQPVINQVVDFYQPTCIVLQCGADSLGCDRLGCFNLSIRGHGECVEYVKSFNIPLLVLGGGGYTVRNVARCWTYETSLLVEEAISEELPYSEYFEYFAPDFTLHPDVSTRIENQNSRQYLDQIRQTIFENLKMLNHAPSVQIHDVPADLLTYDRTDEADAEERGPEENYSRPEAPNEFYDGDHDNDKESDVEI
# Sequence (Q9Y618 395-489 partner): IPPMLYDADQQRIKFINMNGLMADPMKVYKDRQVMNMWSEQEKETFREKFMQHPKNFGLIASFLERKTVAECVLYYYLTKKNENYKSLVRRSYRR
# assay-procedure: HDAC activity inhibition assay, HDAC3/NcoR2
# Format: biochemical

Cn1cc(/C=C/C(=O)Nc2cc(F)ccc2N)cn1 :: < 1000 nM

Turning now to a further compound:
*Q* Test system HDAC3/NcoR2 (Homo sapiens (Human), UniProt O15379); read-out IC50; what value for `Cn1cc(/C=C/C(=O)Nc2ccc(F)cc2N)cn1` ?
*A* 1000 to 5000 nM

----------
# measurement-target: UniProt Q92769
# Sequence (Q92769 whole entry): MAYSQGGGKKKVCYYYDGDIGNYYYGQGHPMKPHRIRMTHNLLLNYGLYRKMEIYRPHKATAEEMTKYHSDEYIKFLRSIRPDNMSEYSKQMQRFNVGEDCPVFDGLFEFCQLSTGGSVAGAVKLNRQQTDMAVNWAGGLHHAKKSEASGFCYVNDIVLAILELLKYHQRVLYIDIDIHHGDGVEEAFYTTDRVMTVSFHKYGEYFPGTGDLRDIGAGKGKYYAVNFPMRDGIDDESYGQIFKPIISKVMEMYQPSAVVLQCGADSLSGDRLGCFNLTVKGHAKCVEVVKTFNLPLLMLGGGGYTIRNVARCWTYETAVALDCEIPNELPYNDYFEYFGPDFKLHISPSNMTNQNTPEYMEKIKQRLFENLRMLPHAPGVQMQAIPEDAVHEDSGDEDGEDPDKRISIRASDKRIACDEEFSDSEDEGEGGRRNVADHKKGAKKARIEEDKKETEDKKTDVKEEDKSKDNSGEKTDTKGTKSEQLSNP
# assay-procedure: HDAC activity inhibition assay, HDAC2
# Assay type: biochemical
# condition: Table 1; 2 hours pre-incubation
Parameter IC50: see the listing below.

# example entries with known answers
Cn1ccc(/C=C/C(=O)Nc2ccccc2N)n1 [A7] :: 1000 to 5000 nM
Nc1ccccc1NC(=O)c1ccc(C=C2CCN(Cc3cccnc3)CC2)cc1 [F2] :: < 1000 nM
Nc1ccccc1NC(=O)/C=C/c1cn2ccnc2s1 [A10] :: 1000 to 5000 nM

*Q* State the recorded IC50 for this entry: Nc1ccccc1NC(=O)/C=C/c1cnn(CCOc2cc(F)cc(Cl)c2)c1 [B5]
*A* < 1000 nM

*Q* Try Nc1ccccc1NC(=O)/C=C/c1cnn(Cc2ccccc2)c1 [D4] next.
*A* 1000 to 5000 nM

*Q* Moving on to the next compound: Nc1ccccc1NC(=O)/C=C/c1cnn(CC(F)(F)c2ccccc2)c1 [D10]
*A* 1000 to 5000 nM
